conditions: Caco-2, Papp (AB), replicate 1
Numbered stars: 1 amine (or outer) side, 2 acyl side, 3 side chain; on linkers, the order of the positions; unused ones are H or OH. Square brackets hold non-standard residues; d marks the D form. Peptide text beside a SMILES is read from it. X2 = CCCCCCOC(=O)N=C(N)NCCC[C@H](N[*:1])C(=O)[*:2]; dNMeV = CN[C@@H](C(=O)O)C(C)C; NMeA = CN[C@@H](C)C(=O)O
Readout kind: Papp A→B (×10⁻⁶ cm/s)

(I) CCCCCCOC(=O)N=C(N)NCCC[C@@H]1NC(=O)[C@@H](C(C)C)N(C)C(=O)[C@H](C)N(C)C(=O)[C@H](C)NC(=O)[C@H](CC(=O)OC)NC(=O)CNC1=O [#29P-Hoc] (cyclo(A[NMeA][dNMeV][X2]GD(OMe)))
(II) CCCCCCOC(=O)N=C(NCCC[C@@H]1NC(=O)[C@H](C(C)C)N(C)C(=O)[C@@H](Cc2ccccc2)NC(=O)[C@H](CC(=O)OC)NC(=O)CNC1=O)NC(=O)OCCCCCC
Select one. Lower Papp A→B: I or II Respond using the label that marks the chosen record.
I
(I: 0.3 ×10⁻⁶ cm/s, II: 0.6 ×10⁻⁶ cm/s)
